Data origin, for the record: PubChem BioAssay AID2060901

- Test system: 422866-222-R5-J1-PDC complex spheroids viability
- experimental-details: Anticancer human tumor 422866-222-R5-J1-PDC patient-derived pancreatic adenocarcinoma cell line growth inhibition [RAS]
- experimental-conditions: second compound 0.0316 µM; first compound 0.0949 µM; active compounds read low
Task for the reader: assign each of the following compounds its reported viability, T/C.
Give your result in % as a bare value.

Query: I would be grateful if you could share the reported viability, T/C for CC1(C)CCC(Nc2ncc(C(F)(F)F)c(-c3c[nH]c4c(P(C)(C)=O)c(C#N)ccc34)n2)CN1 (stereo not drawn) + C=CC(=O)N1CCN(c2nc(OCC3CCCN3C)nc3c(F)c(-c4nc(N)cc(C)c4C(F)(F)F)c(Cl)cc23)C(C)C1 .
Reply: 27.2

Query: Request the reported viability, T/C associated with CCc1c2c(nc3ccc(O)cc13)-c1cc3c(c(=O)n1C2)COC(=O)[C@]3(O)CC + C#Cc1c(F)ccc2cc(O)cc(-c3ncc4c(N5CC6CCC(C5)N6)nc(OCC56CCCN5CC(F)C6)nc4c3F)c12
Reply: 48.5

Query: Value lookup for viability, T/C; key = CCc1c2c(nc3ccc(O)cc13)-c1cc3c(c(=O)n1C2)COC(=O)[C@]3(O)CC + C=CC(=O)N1CCN(c2nc(OCC3CCCN3C)nc3c(F)c(-c4nc(N)cc(C)c4C(F)(F)F)c(Cl)cc23)C(C)C1
Reply: 15.4

* * *

Exercise: for every item that follows, state its recorded viability, T/C.
- System: 422866-222-R5-J1-PDC complex spheroids viability
- experimental-details: Anticancer human tumor 422866-222-R5-J1-PDC cell line growth inhibition [RAS];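 further: spheroids exposed to compounds for 7 days; 100% = DMSO vehicle control viability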
- experimental-conditions: second compound 1 µM; first compound 0.00949 µM; active compounds read low
Give the value, in units of %, as a plain number.

Query: viability, T/C for CC1(C)CCC(Nc2ncc(C(F)(F)F)c(-c3c[nH]c4c(P(C)(C)=O)c(C#N)ccc34)n2)CN1 (stereo not drawn) + C=CC(=O)N1CCN(c2nc(OCC3CCCN3C)nc3c(F)c(-c4nc(N)cc(C)c4C(F)(F)F)c(Cl)cc23)C(C)C1 ?
Reply: 21.1

Query: Please report the recorded viability, T/C for CCc1c2c(nc3ccc(O)cc13)-c1cc3c(c(=O)n1C2)COC(=O)[C@]3(O)CC + C=CC(=O)N1CCN(c2nc(OCC3CCCN3C)nc3c(F)c(-c4nc(N)cc(C)c4C(F)(F)F)c(Cl)cc23)C(C)C1 .
Reply: 17.1

Query: Given CCc1c2c(nc3ccc(O)cc13)-c1cc3c(c(=O)n1C2)COC(=O)[C@]3(O)CC + C#Cc1c(F)ccc2cc(O)cc(-c3ncc4c(N5CC6CCC(C5)N6)nc(OCC56CCCN5CC(F)C6)nc4c3F)c12 , state its recorded viability, T/C.
Reply: 35.4

* * *

- Test system: 422866-222-R5-J1-PDC complex spheroids viability
- experimental-details: Anticancer human tumor 422866-222-R5-J1-PDC cell line growth inhibition [RAS];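 further: spheroids exposed to compounds for 7 days; 100% = DMSO vehicle control viability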
- experimental-conditions: second compound 0.1 µM; first compound 0.316 µM; active compounds read low
measurement-name: viability, T/C (%)
Please reply with the bare figure in % and do not write the unit itself.

Query: Look at this molecule and give its reported viability, T/C. C[C@@H](NC(=O)c1ncnc(N)c1Cl)c1ncc(C(=O)Nc2cc(C(F)(F)F)c(Cl)cn2)s1 + C#Cc1c(F)ccc2cc(O)cc(-c3ncc4c(N5CC6CCC(C5)N6)nc(OCC56CCCN5CC(F)C6)nc4c3F)c12
Reply: 89.2

Query: Looking for the measured viability, T/C of O=C(c1ccc(F)c(F)c1Nc1ccc(I)cc1F)N1CC(O)([C@@H]2CCCCN2)C1 + C#Cc1c(F)ccc2cc(O)cc(-c3ncc4c(N5CC6CCC(C5)N6)nc(OCC56CCCN5CC(F)C6)nc4c3F)c12 , can you help?
Reply: 49.1

Query: Which viability, T/C is reported for this molecule? C=CC(=O)Nc1cc(Nc2nccc(-c3cn(C)c4ccccc34)n2)c(OC)cc1N(C)CCN(C)C + C=CC(=O)N1CCN(c2nc(OCC3CCCN3C)nc3c(F)c(-c4nc(N)cc(C)c4C(F)(F)F)c(Cl)cc23)C(C)C1
Reply: 16.6

Query: Need viability, T/C of CC(=O)OC12COC1CC(O)C1(C)C(=O)C(O)C3=C(C)C(OC(=O)C(O)C(NC(=O)OC(C)(C)C)c4ccccc4)CC(O)(C(OC(=O)c4ccccc4)C21)C3(C)C (centres undefined) + C#Cc1c(F)ccc2cc(O)cc(-c3ncc4c(N5CC6CCC(C5)N6)nc(OCC56CCCN5CC(F)C6)nc4c3F)c12 , thanks.
Reply: 56.5

Query: Could you tell me which viability, T/C is on file for C=CC(=O)Nc1cc(Nc2nccc(-c3cn(C)c4ccccc34)n2)c(OC)cc1N(C)CCN(C)C + C#Cc1c(F)ccc2cc(O)cc(-c3ncc4c(N5CC6CCC(C5)N6)nc(OCC56CCCN5CC(F)C6)nc4c3F)c12 ?
Reply: 62.6

Query: Need viability, T/C, item Cc1nc(N2CCC3(CC2)COC(C)C3N)c(CO)nc1Sc1ccnc(N)c1Cl (centres undefined) + C#Cc1c(F)ccc2cc(O)cc(-c3ncc4c(N5CC6CCC(C5)N6)nc(OCC56CCCN5CC(F)C6)nc4c3F)c12
Reply: 38.9

Query: Value lookup for viability, T/C; key = CCC(CC)c1cc(NC2CCC(N)C2)n2nccc2n1 (centres undefined) + C#Cc1c(F)ccc2cc(O)cc(-c3ncc4c(N5CC6CCC(C5)N6)nc(OCC56CCCN5CC(F)C6)nc4c3F)c12
Reply: 98.2

Query: Could you share which viability, T/C value was measured for CC1(O)CCCC1n1c(=O)c(C(F)F)cc2cnc(NC3CCN(S(C)(=O)=O)CC3)nc21 (centres undefined) + C=CC(=O)N1CCN(c2nc(OCC3CCCN3C)nc3c(F)c(-c4nc(N)cc(C)c4C(F)(F)F)c(Cl)cc23)C(C)C1 ?
Reply: 22.1

Query: What does the record list as viability, T/C for NC1c2ccccc2OC12CCN(c1cnc3c(N4CCCc5ncccc54)n[nH]c3n1)CC2 (centres undefined) + C=CC(=O)N1CCN(c2nc(OCC3CCCN3C)nc3c(F)c(-c4nc(N)cc(C)c4C(F)(F)F)c(Cl)cc23)C(C)C1 ?
Reply: 15.3

* * *

Could you please report measured viability, T/C for the items listed next?
- Test system: 422866-222-R5-J1-PDC complex spheroids viability
- experimental-details: Anticancer human tumor 422866-222-R5-J1-PDC cell line growth inhibition [RAS];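 further: spheroids exposed to compounds for 7 days; 100% = DMSO vehicle control viability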
- experimental-conditions: second compound 0.0949 µM; first compound 0.01 µM; active compounds read low
Only the number, expressed in %, is required.

Query: For the compound CCN1CCN(Cc2ccc(Nc3ncc(F)c(-c4cc(F)c5nc(C)n(C(C)C)c5c4)n3)nc2)CC1 + CCn1c(-c2cccnc2C(C)OC)c2c3cc(ccc31)N1CCOC(CC(NC(=O)C(C(C)C)N(C)C(=O)C3(F)CCN(C(=O)C#CC(C)(C)N(C)C)CC3)C(=O)N3CCCC(N3)C(=O)OCC(C)(C)C2)C1 , what viability, T/C is on record?
Reply: 21.1

Query: Field request: viability, T/C | item: CC(C)n1nc(-c2ccc3oc(N)nc3c2)c2c(N)ncnc21 + CCn1c(-c2cc(N3CCN(C)CC3)cnc2C(C)OC)c2c3cc(ccc31)-c1csc(n1)CC(NC(=O)C1CC1C)C(=O)N1CCCC(N1)C(=O)OCC(C)(C)C2
Reply: 14.2

Query: viability, T/C; subject: C=CC(=O)Nc1cc(Nc2nccc(-c3cn(C)c4ccccc34)n2)c(OC)cc1N(C)CCN(C)C + CCn1c(-c2cc(N3CCN(C)CC3)cnc2C(C)OC)c2c3cc(ccc31)-c1csc(n1)CC(NC(=O)C1CC1C)C(=O)N1CCCC(N1)C(=O)OCC(C)(C)C2
Reply: 17.4

* * *

I'd be grateful if you could share measured viability, T/C for these entries.
- Test system: 422866-222-R5-J1-PDC complex spheroids viability
- experimental-details: Anticancer human tumor 422866-222-R5-J1-PDC cell line growth inhibition [RAS];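 further: spheroids exposed to compounds for 7 days; 100% = DMSO vehicle control viability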
- experimental-conditions: second compound 0.003 µM; first compound 1 µM; active compounds read low
State just the number; it will be interpreted in %.

Query: What measured viability, T/C goes with C=CC(=O)N1CCN(c2nc(OCC3CCCN3C)nc3c(F)c(-c4nc(N)cc(C)c4C(F)(F)F)c(Cl)cc23)C(C)C1 (stereo not drawn) + CCn1c(-c2cccnc2C(C)OC)c2c3cc(ccc31)N1CCOC(CC(NC(=O)C(C(C)C)N(C)C(=O)C3(F)CCN(C(=O)C#CC(C)(C)N(C)C)CC3)C(=O)N3CCCC(N3)C(=O)OCC(C)(C)C2)C1 ?
Reply: 24

Query: // query viability, T/C value for entry C=CC(=O)Nc1cc(Nc2nccc(-c3cn(C)c4ccccc34)n2)c(OC)cc1N(C)CCN(C)C + CCn1c(-c2cc(N3CCN(C)CC3)cnc2C(C)OC)c2c3cc(ccc31)-c1csc(n1)CC(NC(=O)C1CC1C)C(=O)N1CCCC(N1)C(=O)OCC(C)(C)C2
Reply: 18.9

Query: Reported viability, T/C for CC1(O)CCCC1n1c(=O)c(C(F)F)cc2cnc(NC3CCN(S(C)(=O)=O)CC3)nc21 (stereo not drawn) + CCn1c(-c2cc(N3CCN(C)CC3)cnc2C(C)OC)c2c3cc(ccc31)-c1csc(n1)CC(NC(=O)C1CC1C)C(=O)N1CCCC(N1)C(=O)OCC(C)(C)C2 : what is it?
Reply: 30.1
